assaySummary: EBV LMP1 TES2 canonical NF-kB signalling blockers – cell-based, HEK293, luciferase, cherry-pick, dose response (AID 588343)
details: HEK293 LMP1 TES2 NF-kB luciferase reporter, 16 h; series mostly up to 35 µM
Among all 1,200 compounds or so, about 650 (54%) were called active. About 5% were inconclusive and are not listed. So high a share suggests a set chosen from earlier hits. A selection follows. Results with a measured potency or affinity are listed apart.
readout: outcome

molecule: CCc1c(C)nc2cc(-c3ccc(OC)c(OC)c3)nn2c1NCC1CC1
outcome: inactive
//
molecule: C[C@@]12C(=O)N(Cc3ccccc3)CC(=O)N1[C@H](/C=C/c1ccccc1)[C@@H]1C(=O)N(c3ccccc3)C(=O)[C@@H]12
outcome: inactive
//
molecule: CC1(C)CN(Cc2ccccc2)C(=O)[C@H]1CC(=O)Nc1ccccc1
outcome: inactive
//
molecule: O=C(C[n+]1ccccc1)N/N=C/c1ccc(O)cc1
outcome: inactive
//
molecule: Cc1c(C=O)c2ccccn2c1C(=O)c1ccccc1Cl
outcome: inactive
//
molecule: O=C(NCCCN1CCCCC1)c1ccc2c(c1)NC(=O)c1ccccc1S2
outcome: inactive

Then there is this molecule:
Field outcome (entry Cc1nn(CCCC(=O)Nc2cccnc2Cl)c(C)c1[N+](=O)[O-] ) reads inactive

* * *

assaySummary: EBV LMP1 TES2 canonical NF-kB signalling blockers – cell-based, HEK293, luciferase, cherry-pick, dose response (AID 588343)
details: HEK293 LMP1 TES2 NF-kB luciferase reporter, 16 h; series mostly up to 35 µM
About 650 (54%) of roughly 1,200 compounds were called active. About 5% were inconclusive and are not listed. The set was probably picked from earlier hits. Not all results are given here. Potency and affinity values are given separately.
readout: outcome

These recorded examples may help you get a feel for the data.
compound: CC(C)OCCCNC(=O)C1CCC(CNS(=O)(=O)c2ccccc2)CC1 (stereo unspecified)
outcome: inactive
//
compound: COc1ccc(OC)c2[nH]c(=O)c(CCNC(=O)c3ccc(S(=O)(=O)N(C)C)cc3)cc12
outcome: inactive
//
compound: C[C@H](NC(=O)N1CCn2c1nc1ccccc12)C(=O)NCC1CCCO1 (stereo partly specified)
outcome: inactive
//
compound: COc1cc2nc(N3CCN(C(=O)C4CCCO4)CC3)nc(N)c2cc1OC (stereo unspecified)
outcome: inactive
//
compound: COc1ccc(C2CC(C(F)(F)F)n3ncc(C(=O)NCc4cccnc4)c3N2)cc1OC (stereo unspecified)
outcome: inactive
//
compound: COc1ccc(CNC(=O)COC(=O)[C@@H]2CCCN2C(=O)c2cccs2)cc1
outcome: inactive
//
compound: Cn1c(CC(=O)Nc2ccc(F)cc2)nnc1SCC(=O)Nc1nncs1
outcome: inactive
//
compound: CC(C)N1CCN(c2ccc(OC[C@H]3CO[C@](Cn4cncn4)(c4ccc(Cl)cc4Cl)O3)cc2)CC1
outcome: inactive

Field outcome (entry NC(=O)OCC(COC(N)=O)c1ccccc1 ) reads inactive

Field outcome (entry O=C(NCCc1cn2ccccc2n1)C1CCCCC1 ) reads inactive

Field outcome (entry COc1ccc(C2=NN(C(=O)CSC3=NN4CCCC(=O)N=C4S3)C(c3cccc(OC)c3OC)C2)cc1 (stereo unspecified) ) reads inactive

Field outcome (entry C/C(=N\Nc1ccc(C(F)(F)F)cc1[N+](=O)[O-])C(C)C ) reads inactive

Field outcome (entry CCN(CC(=O)NCc1ccc(F)cc1)CC(=O)Nc1cc(S(=O)(=O)N(C)C)ccc1C ) reads inactive

Field outcome (entry Cc1ccc(-c2nnn(CC(=O)N(Cc3ccco3)C(C(=O)NC(C)(C)C)c3ccncc3)n2)o1 (stereo unspecified) ) reads inactive

Field outcome (entry O=C(OCc1nc2ccccc2s1)[C@@H]1CCCN1S(=O)(=O)c1ccccc1F ) reads inactive

Field outcome (entry O=C(O)c1ccccc1Nc1cccc(OCc2ccc3ccccc3n2)c1 ) reads inactive

Field outcome (entry Cc1cccc(NC(=O)Nc2c(C)n(C)n(-c3ccccc3)c2=O)c1C ) reads inactive

Field outcome (entry CC(C)[C@H](N[C@@H](C)c1ccccc1)c1c(O)ccc2ccccc12 ) reads inactive

Field outcome (entry COC(=O)CN(c1ccccc1F)S(=O)(=O)c1ccc(C)cc1 ) reads inactive

Field outcome (entry Cc1ccc(C)c(S(=O)(=O)N2CCN(CC(=O)N3CCc4ccccc4C3)CC2)c1 ) reads inactive

Field outcome (entry Cc1ccc(C)c(S(=O)(=O)N2CCN(C(=O)c3ccc(C)s3)CC2)c1 ) reads inactive
